Quick reference for [^3H]VPA uptake (% of control) among some compounds
Test system: [^3H]VPA uptake in MT (hSOD1^G93A) NSC-34 cell line
EXPERIMENTAL PARAMETERS: compound 10 mM, 10 s, 37 °C, pH 6.0
Structures can show the parent of a compound that is named as a salt.

Consider the worked cases shown below.
N#CC(=Cc1ccc(O)cc1)C(=O)O [CHC, α-cyano-4-hydroxycinnamate]; 74.6 ± 7.1 % of control
CC(=O)O; 15.4 ± 1.4 % of control
O=C(O)CCCc1ccccc1; 56.6 ± 3.0 % of control
CCCC(CCC)C(=O)O; 37.4 ± 4.2 % of control
CC(C)Cc1ccc(C(C)C(=O)O)cc1 (stereo not shown); 33.5 ± 1.0 % of control
O=C(O)CC(O)(CC(=O)O)C(=O)O; 125 ± 13 % of control
CC1=NN(c2ccccc2)C(=O)C1; 68.6 ± 6.3 % of control
O=C(O)c1ccccc1O; 31.9 ± 1.6 % of control

-- ask Consider the compound Nc1ccc(C(=O)NCC(=O)O)cc1 and give its recorded [^3H]VPA uptake (% of control).
-- reply 63.5 ± 5.5 % of control

-- ask Consider the compound C[C@]12CC[C@@H]3c4ccc(OS(=O)(=O)O)cc4CC[C@H]3[C@@H]1CCC2=O [Estrone − 3 sulfate, estrone 3-sulfate] and give its recorded [^3H]VPA uptake (% of control).
-- reply 58.2 ± 8.5 % of control
